Test system: U2OS
Assay: Incucyte cell viability with U2OS; further: unitless GR value; below 1 slowed growth and below 0 cell loss
Format: toxicity, cell-based
Conditions: human, 6 h, 10 µM, compound concentration 10 uM, replicate number 1
REPORTED ENDPOINT: Growth Rate
One number for each entry.

Reported Growth Rate for CN1CCN(c2ccc(/C=C(\C#N)c3ccccc3Br)cc2)CC1.Cl.Cl was 0.94

Reported Growth Rate for CN1[C@@H](CC(=O)c2ccccc2)CCC[C@H]1C[C@H](O)c1ccccc1.Cl [LOBELINE HYDROCHLORIDE] was 0.83

Reported Growth Rate for O=C(Nc1cccc(C(F)(F)F)c1)c1cccc(-n2cc(-c3ccco3)nn2)c1 was 0.72

Reported Growth Rate for Cc1cc(C)cc(C(=O)NOCCCCCC(=O)NO)c1 was 0.62

Reported Growth Rate for CCCN1C(=O)c2ccc(Cl)cc2Nc2ncccc21 was 0.65

// for each compound below, give its Growth Rate
1. CN(C)C(=O)Cn1cc(-c2nc([C@@](C)(c3ccc(-c4cnc(N)nc4)cc3)C3CC3)no2)cn1
2. Cc1ccc(C)c(OCCCC(C)(C)C(=O)O[C@@H]2O[C@H](C(=O)O)[C@@H](O)[C@H](O)[C@H]2O)c1
3. COC[C@@H](C)N[C@H]1CC[C@H](Nc2cc(-c3cccc(NCC4(C#N)CCOCC4)n3)c(Cl)cn2)CC1

Result:
[0.55, 0.4, 0.79]

###

Tested on: HEK-293T
Experiment: Incucyte cell viability with HEK293T; further: unitless GR value; below 1 slowed growth and below 0 cell loss
Type: toxicity, cell-based
Settings: human, 24 h, 10 µM, compound concentration 10 uM, replicate number 1
REPORTED ENDPOINT: Growth Rate

Reported Growth Rate for O=c1cccc2n1C[C@@H]1CNC[C@H]2C1 [CYTISINICLINE] was 0.88

Reported Growth Rate for C[S+]([O-])c1ccc(-c2nc(-c3cccc(I)c3)c(-c3ccncc3)[nH]2)cc1 (stereo unspecified) was 0.99

Reported Growth Rate for COc1ccc2c(O[C@@H]3C[C@H]4C(=O)N[C@]5(C(=O)NS(=O)(=O)C6(C)CC6)CC5/C=C\CCCCC[C@H](NC(=O)c5ccn(C)n5)C(=O)N4C3)cc(OC(C)C)nc2c1C (stereo partly specified) was 0.9

Reported Growth Rate for O=c1cc(-c2cc(F)c(Cl)nc2Cl)[nH]c2c(-c3ccccc3)c(C(F)(F)F)nn12 was 0.8

Reported Growth Rate for COc1ccccc1-n1nc(C2CC(C)(C)OC(C)(C)C2)cc1-c1ccc(Cl)cc1 was 0.95

// for each compound below, give its Growth Rate
1. c1cc(-c2cnn3cc(-c4ccc(N5CCNCC5)cc4)cnc23)c2cccnc2c1
2. Cc1cc(OC2CCS(=O)(=O)CC2)cc(C)c1-c1cccc(COc2ccc(C(=O)O)c(F)c2)c1
3. O=C1NCCSc2c1sc1ccc(O)cc21

Result:
[-0.34, 0.9, 0.15]

###

Tested on: Fibroblast
Experiment: Incucyte cell viability with human fibroblast; further: unitless GR value; below 1 slowed growth and below 0 cell loss
Assay type: toxicity, cell-based
Details: 0 h, 10 µM, compound concentration 10 uM, replicate number 2
REPORTED ENDPOINT: Growth Rate
Answers are plain numbers.

Take a look at these entries with their results.
Reported Growth Rate for C=CC(=O)Nc1cccc(C(=O)Nc2ccc(Nc3cc(-c4c(-c5ccc(F)cc5)nc(SC)n4C)ccn3)cc2)c1 was 0.71

Reported Growth Rate for CC[C@@H]1C(=O)N(C)c2cnc(Nc3ccc(C(=O)NC4CCN(C)CC4)cc3OC)nc2N1C1CCCC1 [BI-2536] was -0.99

Reported Growth Rate for O=C(O)c1ccc(S(=O)(=O)N(Cc2ccc(OC(F)(F)F)cc2)c2ncc(C(F)(F)F)cc2Cl)cc1 was -0.5

Reported Growth Rate for Clc1cccc(-n2nnnc2NCc2ccccc2Oc2ccccn2)c1Cl was 0.26

// for each compound below, give its Growth Rate
1. CN(C)[C@H]1CC[C@H](Nc2ncc3ncnc(Nc4ccc(F)c(Cl)c4)c3n2)CC1
2. CS(=O)(=O)c1cc(C2(NC(=O)c3cncc4c3cnn4-c3ccc(F)cc3)CC2)ccn1 [BI 639667]

Result:
-1
-0.75

###

Consider the following molecules; for each one, report its Growth Rate.
Test system: HEK-293T
Experiment: Incucyte cell viability with HEK293T; further: unitless GR value; below 1 slowed growth and below 0 cell loss
Format: toxicity, cell-based
Settings: human, 18 h, 10 µM, compound concentration 10 uM, replicate number 2
Give bare numbers.

Take a look at these entries with their results.
CS(=O)(=O)c1ccc(-c2cnc(N)c(C(=O)Nc3ccccc3)n2)cc1 on HEK-293T gives Growth Rate = -0.07

COC[C@@H](C)N[C@H]1CC[C@H](Nc2cc(-c3cccc(NCC4(C#N)CCOCC4)n3)c(Cl)cn2)CC1 on HEK-293T gives Growth Rate = 0.24

Cc1cc(-c2cc3ncccc3c(OC[C@H]3CCCNC3)n2)ccc1N(C)C.O=C(O)C(F)(F)F on HEK-293T gives Growth Rate = -0.28

O=c1cc(-c2cc(F)c(Cl)nc2Cl)[nH]c2c(-c3ccccc3)c(C(F)(F)F)nn12 on HEK-293T gives Growth Rate = 0.98

CCN1CCN(Cc2ccc(Nc3ncc(F)c(-c4cc(F)c5nc(C)n(C(C)C)c5c4)n3)nc2)CC1.CS(=O)(=O)O on HEK-293T gives Growth Rate = 0.6

CCn1c(CNC(=O)c2nc(Cl)cnc2N)[n+](CC)c2ccc(C(=O)N(C)CCN(C)C)cc21.[Cl-] on HEK-293T gives Growth Rate = 0.77

C[C@@H]1COCCN1c1cc(=O)n2c(n1)N(Cc1cncc(Cl)c1)[C@H](C(F)(F)F)CC2 on HEK-293T gives Growth Rate = 0.54

Cc1cn(CCN2CCN(c3ccccc3-c3cc(C#N)cc(C(=O)NCCCN4CCCC4)c3)CC2)c2ccccc12 on HEK-293T gives Growth Rate = -0.47

// for each molecule below, give its Growth Rate
1. Cc1nc2c(cc1F)c(-c1nnc3c(n1)NC(=O)C3(C)C)nn2Cc1cccc(F)c1F
2. Cc1cc(S(=O)(=O)N2CC(C)(C)c3cc(-c4ccc(C(F)(F)F)cc4)ccc32)ccc1OCC(=O)O

Result:
1. 0.8
2. 0.95

###

System: U2OS
Experiment: Incucyte cell viability with U2OS; further: unitless GR value; below 1 slowed growth and below 0 cell loss
Assay type: toxicity, cell-based
Details: human, 6 h, 10 µM, compound concentration 10 uM, replicate number 2
Field 'label' (enum: MET / NOT MET). Set to MET when Growth Rate is strictly under 0.7; else NOT MET.

Q: Does this molecule meet the criterion Growth Rate < 0.7? Cc1nc(Nc2cnn(C3CCNCC3)c2)nc2c1N(C)C(=O)c1cc3ccccc3cc1N2C
Result: NOT MET

***
Q: Does this molecule meet the criterion Growth Rate < 0.7? Cc1cnc(Nc2ccc(C(=O)N3CCN(C)CC3)cc2)nc1N[C@@H]1CCC[C@@H]1C(N)=O
Result: MET

Q: Does this molecule meet the criterion Growth Rate < 0.7? CCc1ccccc1C(=O)Nc1n[nH]c2c(C)c(F)c(C3C(C#N)=C(C)N(C)C(C)=C3C#N)cc12 [BAY-3827]
Result: MET

Q: Does this molecule meet the criterion Growth Rate < 0.7? C=C1/C(=C\C=C2/CCC[C@]3(C)[C@@H]([C@H](C)CCCC(C)(C)O)CC[C@@H]23)C[C@@H](O)C[C@@H]1O [CALCITRIOL]
Result: MET

Q: Does this molecule meet the criterion Growth Rate < 0.7? COc1cnccc1Nc1nc(-c2nn(Cc3c(F)cc(OCCO)cc3F)c3ccccc23)ncc1OC
Result: MET

Q: Does this molecule meet the criterion Growth Rate < 0.7? CC(=O)c1c(C)c2cnc(Nc3ccc(N4CCN(CCCCNC(=O)COc5cccc6c5C(=O)N(C5CCC(=O)NC5=O)C6=O)CC4)cn3)nc2n(C2CCCC2)c1=O (stereo unspecified)
Result: NOT MET

###

Test system: Fibroblast
Assay: Incucyte cell viability with human fibroblast; further: unitless GR value; below 1 slowed growth and below 0 cell loss
Type: toxicity, cell-based
Conditions: 12 h, 10 µM, compound concentration 10 uM, replicate number 2
REPORTED ENDPOINT: Growth Rate
Numbers only.

O=c1ccc2c(OCCCCOc3ccccc3)c3ccoc3cc2o1 on Fibroblast gives Growth Rate = 0.95

Cc1cn([C@@H](C)CC#N)c(=O)c2cc(Cn3nc(C(F)F)cc3Cl)nn12 on Fibroblast gives Growth Rate = 0.66

// for each compound below, give its Growth Rate
1. COc1cc(C(=O)NCCOCCOCCOCCC(=O)Nc2cccc3c2C(=O)N(C2CCC(=O)NC2=O)C3=O)ccc1Nc1ncc(C(F)(F)F)c(Oc2cccc3c2C(=O)CC3)n1 (configuration not stated)
2. Cc1cccc(CC(=O)N2CCc3c2ccc(-c2cn(C)c4ncnc(N)c24)c3F)n1
3. CCN1C(=O)c2cc(C)ccc2N(C)c2ncccc21
4. CC(C)n1nc(-c2cnc(N)c(OC(F)(F)F)c2)cc1[C@H]1[C@@H]2CN(C3COC3)C[C@@H]21
5. N=C(N)NCCC[C@@H](NC(=O)C(c1ccccc1)c1ccccc1)C(=O)NCc1ccc(CNC(N)=O)cc1.O=C(O)C(F)(F)F

Result:
0.65
0.94
0.29
0.78
0.86

// for each compound below, give its Growth Rate
1. COc1cc(-c2nn([C@H]3CC[C@H](N4CCN(C(C)=O)CC4)CC3)c3ncnc(N)c23)ccc1NC(=O)c1cc2ccccc2n1C
2. COc1ccc(-c2c(-c3ccccc3)oc3ncnc(O[C@H](C)CCCCC(=O)O)c23)cc1

Result:
1. 0.45
2. 0.48

All values here come from ChEMBL document CHEMBL5303304.
